Where do the numbers come from? From patent US12391676B2.

Known pIC50 of a selection of compounds
# Measurement target: JAK2 (Homo sapiens (Human), UniProt O60674)
# Sequence (O60674 whole entry): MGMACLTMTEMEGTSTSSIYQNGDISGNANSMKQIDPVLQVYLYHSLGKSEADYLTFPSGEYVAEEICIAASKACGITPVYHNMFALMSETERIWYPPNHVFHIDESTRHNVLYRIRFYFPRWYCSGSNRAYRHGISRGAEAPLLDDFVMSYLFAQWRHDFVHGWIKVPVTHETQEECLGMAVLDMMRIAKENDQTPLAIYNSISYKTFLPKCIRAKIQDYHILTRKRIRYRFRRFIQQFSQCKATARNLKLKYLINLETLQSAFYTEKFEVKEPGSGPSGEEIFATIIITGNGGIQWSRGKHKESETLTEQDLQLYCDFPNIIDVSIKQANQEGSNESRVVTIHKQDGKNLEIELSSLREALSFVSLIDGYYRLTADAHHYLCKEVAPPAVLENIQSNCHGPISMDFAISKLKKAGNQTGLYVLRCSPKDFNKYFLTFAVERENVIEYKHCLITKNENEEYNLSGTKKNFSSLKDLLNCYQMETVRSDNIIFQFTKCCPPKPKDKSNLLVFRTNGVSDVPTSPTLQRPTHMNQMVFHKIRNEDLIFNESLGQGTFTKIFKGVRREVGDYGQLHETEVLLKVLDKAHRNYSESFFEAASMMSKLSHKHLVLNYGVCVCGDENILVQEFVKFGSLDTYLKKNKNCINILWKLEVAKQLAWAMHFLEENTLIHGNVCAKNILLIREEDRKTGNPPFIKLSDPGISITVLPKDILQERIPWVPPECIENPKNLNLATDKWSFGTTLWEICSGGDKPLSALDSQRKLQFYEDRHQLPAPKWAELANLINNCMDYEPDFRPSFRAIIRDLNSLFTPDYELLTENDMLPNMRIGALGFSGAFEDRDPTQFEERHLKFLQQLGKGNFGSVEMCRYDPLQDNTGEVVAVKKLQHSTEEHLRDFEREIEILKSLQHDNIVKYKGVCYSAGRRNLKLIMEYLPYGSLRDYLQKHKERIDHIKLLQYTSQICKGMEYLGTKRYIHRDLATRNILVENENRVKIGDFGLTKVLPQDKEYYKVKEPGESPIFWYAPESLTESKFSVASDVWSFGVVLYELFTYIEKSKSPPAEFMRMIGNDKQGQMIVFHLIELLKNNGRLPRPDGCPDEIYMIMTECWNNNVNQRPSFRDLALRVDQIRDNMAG
# Run description: JAK2 IC50
# Format: biochemical
# Test conditions: Table 2
pIC50: −log10 of the molar value.

| Input smiles | Measurement target | Value prefix | pIC50 |
| --- | --- | --- | --- |
| Cc1cnc(Nc2ccc(N3CCN(C)CC3)c(F)c2)cc1Nc1cccc(NS(=O)(=O)C(C)(C)C)c1 | JAK2 (Homo sapiens (Human), UniProt O60674) | < | 6.00 |
| Cc1cnc(Nc2cc(F)cc(N3CCN(C)CC3)c2)nc1Nc1ccc(Cl)c(NS(=O)(=O)C(C)(C)C)c1 | JAK2 (Homo sapiens (Human), UniProt O60674) | = | 7.77 |
| Cc1cnc(Nc2ccc(C3CCN(C)CC3)c(F)c2)nc1Nc1ccc2c(c1)N(S(=O)(=O)C(C)(C)C)CC2 | JAK2 (Homo sapiens (Human), UniProt O60674) | = | 8.96 |
| Cc1cnc(Nc2ccc(C3CCN(C)CC3)c(F)c2)nc1Nc1cccc(NS(=O)(=O)C(C)(C)C)c1 | JAK2 (Homo sapiens (Human), UniProt O60674) | = | 9.15 |

---

Known BRD4 DSF (ΔTm) of a selection of molecules
# Measurement target: BRD4 (Homo sapiens (Human))
# Run description: BRD4 DSF thermal shift (ΔTm)
# Assay type: binding
# Test conditions: Table 2
Attribute measured: BRD4 DSF (ΔTm)

| Input smiles | Result |
| --- | --- |
| Cc1cnc(Nc2ccc(C3CCN(C)CC3)c(F)n2)nc1Nc1cc(NS(=O)(=O)C(C)(C)C)ncn1 | 1.4 °C |
| Cc1cnc(Nc2ccc(C3CCN(C)CC3)c(F)c2)cc1Nc1ccc2c(c1)N(S(=O)(=O)C(C)(C)C)CC2 | 8.2 °C |
| Cc1cnc(Nc2cc(F)cc(N3CCN(C)CC3)c2)nc1Nc1ccc(Cl)c(NS(=O)(=O)C(C)(C)C)c1 | 11.3 °C |
| Cc1cnc(Nc2ccc(C3CCN(C)CC3)cn2)nc1Nc1ccc(Cl)c(NS(=O)(=O)C(C)(C)C)c1 | 12.3 °C |

---

# Measurement target: BRD4 (Homo sapiens (Human))
# Run description: BRD4 DSF thermal shift (ΔTm)
# Assay type: binding
# Test conditions: Table 2
Known BRD4 DSF (ΔTm) of a selection of compounds

| Input smiles | Measurement target | Reading unit | BRD4 DSF (ΔTm) |
| --- | --- | --- | --- |
| Cc1cnc(Nc2ccc(C3CCN(C)CC3)c(F)c2)nc1Nc1ccc(F)c(NS(=O)(=O)C(C)(C)C)c1 | BRD4 (Homo sapiens (Human)) | °C | 13.0 |
| Cc1ccc(Nc2nc(Nc3ccc(C4CCN(C)CC4)c(F)c3)ncc2C)cc1NS(=O)(=O)C(C)(C)C | BRD4 (Homo sapiens (Human)) | °C | 12.3 |
| Cc1cnc(Nc2ccc(C3CCN(C)CC3)c(F)c2)nc1Nc1ccc2c(c1)N(S(=O)(=O)C(C)(C)C)CC2 | BRD4 (Homo sapiens (Human)) | °C | 13.4 |
| Cc1cnc(Nc2ccc(C3CCN(C)CC3)c(F)n2)nc1Nc1ccc(F)c(NS(=O)(=O)C(C)(C)C)c1 | BRD4 (Homo sapiens (Human)) | °C | 12.1 |
| CN1CCC(c2ccc(Nc3ncc(I)c(Nc4ccc(Cl)c(NS(=O)(=O)C(C)(C)C)c4)n3)cc2F)CC1 | BRD4 (Homo sapiens (Human)) | °C | 11.6 |
| Cc1cnc(Nc2cc(F)c(C3CCN(C)CC3)cn2)nc1Nc1cc(NS(=O)(=O)C(C)(C)C)ncn1 | BRD4 (Homo sapiens (Human)) | °C | 2.8 |
| Cc1cnc(Nc2ccc(C3CCN(C)CC3)c(F)n2)nc1Nc1ccc(Cl)c(NS(=O)(=O)C(C)(C)C)c1 | BRD4 (Homo sapiens (Human)) | °C | 13.0 |
